Entries and their measured GI50 follow.
- System: NCI-H226
- protocol_description: NCI tumour cell line growth inhibition, 48 h
The source made the active and inactive calls. No stated cut-off is given here; in the data, active = GI50 up to about 1.1 µM and inactive = higher.
measured_parameter: GI50

1. CCOC(=O)C(CCc1ncnc2c1ncn2Cc1ccccc1)(CCc1ncnc2c1ncn2Cc1ccccc1)C(=O)OCC | 27.7 µM (inactive)
2. CN(C)C(=O)NC(=S)N(C)C | 55.1 µM (inactive)
3. CC(=O)CC(=O)Nc1ccc2ccccc2c1 | > 100 µM (inactive)
4. COC1OC(Cc2nnc(C)o2)C(OCc2ccccc2)C(OCc2ccccc2)C1OCc1ccccc1 (stereo not drawn) | 29.5 µM (inactive)
5. O=C(/C=C/c1ccccc1F)C(c1ccccc1)c1ccccc1 | 11.4 µM (inactive)
6. NS(=O)(=O)c1ccc(NC(=S)NC(=O)Nc2ccc(Cl)c(Cl)c2)cc1 | 20.4 µM (inactive)
7. CC(C)NC(=O)OCc1c(COC(=O)NC(C)C)n(C)c2c1ccc1ccccc12 | 1.82 µM (inactive)
8. O=C(c1ccccc1)[C@@H]1C[C@H](Sc2ccccc2)c2cc(Cl)ccc2N1 | 25.6 µM (inactive)
9. CCN(CC)c1c(C)c(C(=O)OC)nn1-c1ccccc1 | > 77.1 µM (inactive)
10. CN1CCN(Cn2nc(COc3ccccc3Cl)n(/N=C/c3ccc(-c4ccc(Cl)cc4Cl)o3)c2=S)CC1 | 51.5 µM (inactive)
11. CCOP(=O)(Nc1ccc2oc(=O)c3ccccc3c2c1)OCC | 41 µM (inactive)
12. O=C(CSc1nc2ccc(I)cc2c(=O)n1Cc1ccccc1)NN1C(=O)c2ccccc2C1=O | 6.3 µM (inactive)
13. C/C(C=O)=C1\C(O)C[C@]1(C)C1CC(C)(C)CC1O (stereo partly drawn) | > 100 µM (inactive)

====

- Test system: SK-MEL-28
- protocol_description: NCI tumour cell line growth inhibition, 48 h
Activity calls are given as the source filed them. Rule as the data show it: active = GI50 up to about 1.1 µM and inactive = higher. Where a SMILES comes first, the peptide text is derived from it. [ ]: non-standard residue; d: D form. ξ: configuration not given here. ξThz(5,5-Me2) = CC1(C)SCNC1C(=O)O
Possible outcomes: y = active, n = inactive

1. CCc1ccc(/C(C)=N/NC(N)=S)cc1 | n
2. CC12CC3C(CC1SCC(=O)O2)C3(C)C (configuration not stated) | n
3. CC[C@]1(c2ccc3c(c2)OCO3)C=[N+]([O-])O[C@H](OC2CCCC2(c2ccccc2)c2ccccc2)[C@@H]1OC(C)=O (some centres not stated) | n
4. O=C1CCCCC1CN1CCCC1 (configuration not stated) | n
5. CSCC[C@H](NC(=O)[C@H](CC(C)C)NC(=O)[C@H](Cc1c[nH]cn1)NC(=O)CNC(=O)C1N(C(=O)[C@@H](C)NC(=O)[C@H](Cc2c[nH]c3ccccc23)NC(=O)[C@H](CCC(N)=O)NC(=O)[C@@H](N)CC(N)=O)CSC1(C)C)C(N)=O (some centres not stated) (H-NQW[dA][ξThz(5,5-Me2)]GHLM-NH2) | n
6. O=C(/C=C/CC(O)(c1ccccc1)c1ccccc1)Nc1ccccc1Cl | n
7. CC(C)(C)C(=O)OCC(COC(=O)C(C)(C)C)[N+](=O)[O-] | n
8. NNC(=O)COc1nc(-c2cccs2)nc2ccc(I)cc12 | n
9. CN(N)/N=N/c1[nH]cnc1[N+](=O)[O-] | n
10. Nc1nc(SCC(=O)c2ccc(Br)cc2)c2nc[nH]c2n1 | n
11. CCCCN(CCCC)CC(O)c1cc(-c2ccc(Cl)c(Cl)c2)nc2c(Cl)cc(Cl)cc12 (configuration not stated) | n
12. O=C1CC(CC(O)C(O)C(O)CO)CC(=O)N1 (configuration not stated) | n
13. O=Cc1cc2c(s1)C(=O)c1sccc1C2=O | y
14. CCN(CC)C(=O)c1c(Cl)cc(N(CC)CC)oc1=O | n
15. COc1ccc(C(Nc2ccccn2)c2cc(C(C)(C)C)cc(C(C)(C)C)c2O)cc1 (configuration not stated) | n
16. COc1cc(Cc2nccc3cc(OC)c(OC)cc23)c(/N=N/N(C)C)cc1OC | n
17. O=C(N/C(=C\c1cccc([N+](=O)[O-])c1)c1nc2ccccc2[nH]1)c1ccccc1 | n
